Recorded values, source ChEMBL document CHEMBL1201862.

# measured.on: Large T antigen (Simian virus 40)
# Sequence (P03070 whole entry): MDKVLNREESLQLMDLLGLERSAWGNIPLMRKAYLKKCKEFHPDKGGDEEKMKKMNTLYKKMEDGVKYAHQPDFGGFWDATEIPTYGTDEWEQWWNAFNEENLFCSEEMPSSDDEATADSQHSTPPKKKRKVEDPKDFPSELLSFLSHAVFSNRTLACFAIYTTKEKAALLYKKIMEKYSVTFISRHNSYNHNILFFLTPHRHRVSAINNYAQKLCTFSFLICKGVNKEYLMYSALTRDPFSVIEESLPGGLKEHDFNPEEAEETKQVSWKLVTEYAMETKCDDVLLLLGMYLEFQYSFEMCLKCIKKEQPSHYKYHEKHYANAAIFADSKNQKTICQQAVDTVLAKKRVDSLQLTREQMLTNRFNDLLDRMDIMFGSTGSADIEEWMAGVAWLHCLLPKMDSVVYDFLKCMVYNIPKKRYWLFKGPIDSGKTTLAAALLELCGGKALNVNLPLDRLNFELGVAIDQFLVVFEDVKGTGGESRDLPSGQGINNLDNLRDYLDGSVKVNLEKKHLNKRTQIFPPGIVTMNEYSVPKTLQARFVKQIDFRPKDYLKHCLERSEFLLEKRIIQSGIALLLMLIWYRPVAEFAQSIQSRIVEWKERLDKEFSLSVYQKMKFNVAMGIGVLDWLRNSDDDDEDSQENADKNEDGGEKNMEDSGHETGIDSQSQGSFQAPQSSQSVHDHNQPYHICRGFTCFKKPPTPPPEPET
# Assay type: functional, Betapolyomavirus macacae
Calls of active or inactive are those of the source.
IC50 by entry:
result.type: IC50

{"molecule": "CCOc1ccc(N2C(=O)/C(=C/c3ccc(C)o3)C(=O)NC2=S)cc1", "measured.on": "Large T antigen (Simian virus 40)", "result.type": "IC50", "reading": "49.9 µM (active)"}
{"molecule": "O=C1CC(N2CCN(c3ccc(O)cc3)CC2)C(=O)N1Cc1cccs1 (stereo unspecified)", "measured.on": "Large T antigen (Simian virus 40)", "result.type": "IC50", "reading": "5.41 µM (active)"}
{"molecule": "COc1ccc(OC)c(CCNC(=O)Cn2sc3nc(C)cc(C)c3c2=O)c1", "measured.on": "Large T antigen (Simian virus 40)", "result.type": "IC50", "reading": "22.1 µM (active)"}
{"molecule": "COc1ccc(Nc2ccc(OC)cc2)cc1", "measured.on": "Large T antigen (Simian virus 40)", "result.type": "IC50", "reading": "26.2 µM (active)"}
{"molecule": "Oc1c(Br)cc(Br)c(/C=N/n2c(S)nnc2-c2ccccc2)c1Br", "measured.on": "Large T antigen (Simian virus 40)", "result.type": "IC50", "reading": "28.2 µM (active)"}
{"molecule": "CCN(CC)c1ccc(/C=N/N2CCOCC2)cc1", "measured.on": "Large T antigen (Simian virus 40)", "result.type": "IC50", "reading": "5.98 µM (active)"}

* * *

# measured.on: Cytochrome P450 2C9 (Homo sapiens, UniProt P11712)
# Sequence (P11712 whole entry): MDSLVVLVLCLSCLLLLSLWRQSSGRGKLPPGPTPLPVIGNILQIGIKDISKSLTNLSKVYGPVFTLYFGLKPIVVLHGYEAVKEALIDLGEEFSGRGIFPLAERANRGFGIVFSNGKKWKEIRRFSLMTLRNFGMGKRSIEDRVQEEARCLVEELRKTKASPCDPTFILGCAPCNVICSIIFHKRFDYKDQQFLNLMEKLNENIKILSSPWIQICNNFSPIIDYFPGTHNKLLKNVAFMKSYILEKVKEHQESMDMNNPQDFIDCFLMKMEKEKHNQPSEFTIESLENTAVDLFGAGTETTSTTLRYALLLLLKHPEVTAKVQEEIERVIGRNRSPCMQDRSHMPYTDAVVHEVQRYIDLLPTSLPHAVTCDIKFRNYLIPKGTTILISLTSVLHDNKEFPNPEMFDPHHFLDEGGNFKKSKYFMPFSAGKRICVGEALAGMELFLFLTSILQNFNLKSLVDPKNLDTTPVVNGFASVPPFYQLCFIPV

{"compound": "Cc1cc(C(F)(F)F)n2nc(-c3cnn(C)c3C(F)(F)F)cc2n1", "AC50": "7.08 µM (inconclusive)"}
{"compound": "C=CCN1C[C@H](C)N([C@@H](c2ccccc2)c2ccc(C(=O)N(CC)CC)cc2)C[C@H]1C", "AC50": "31.6 µM (inconclusive)"}
{"compound": "CCC/C=C(\\CCC)C(NC(=O)c1ccc(C(F)(F)F)cc1)c1ccccc1 (stereo not given)", "AC50": "3.16 µM (inconclusive)"}
{"compound": "COc1cccc(Nc2ncc3nc(C)c(=O)n(CCc4ccccc4)c3n2)c1", "AC50": "3.16 µM (inconclusive)"}
{"compound": "N#CCCn1c(=O)c(-c2cccs2)nc2cnc(Oc3cccc(Cl)c3)nc21", "AC50": "6.31 µM (inconclusive)"}
{"compound": "CN1CCN(NC(=O)c2cccc(F)c2)CC1", "AC50": "0.355 µM (inconclusive)"}
{"compound": "O=[N+]([O-])C(/C=C(\\Cl)[N+](=O)[O-])=C1N(Cc2ccc(Cl)nc2)CCN1Cc1ccc(Cl)nc1", "AC50": "12.6 µM (inconclusive)"}
{"compound": "CN1CCN(c2cc(N3CCCC3)c([N+](=O)[O-])cc2F)CC1", "AC50": "0.1 µM (inconclusive)"}
{"compound": "C=CCNC(=O)/C(=C\\c1ccc2c(c1)OCO2)NC(=O)c1ccc(Br)cc1", "AC50": "5.62 µM (inconclusive)"}
{"compound": "NS(=O)(=O)c1cc(C(=O)O)c(O)c2ccccc12", "AC50": "3.98 µM (inconclusive)"}

* * *

EC50 by entry:
# measured.on: Streptokinase A (Streptococcus pyogenes serotype M1, UniProt P10520)
# Sequence (P10520 whole entry): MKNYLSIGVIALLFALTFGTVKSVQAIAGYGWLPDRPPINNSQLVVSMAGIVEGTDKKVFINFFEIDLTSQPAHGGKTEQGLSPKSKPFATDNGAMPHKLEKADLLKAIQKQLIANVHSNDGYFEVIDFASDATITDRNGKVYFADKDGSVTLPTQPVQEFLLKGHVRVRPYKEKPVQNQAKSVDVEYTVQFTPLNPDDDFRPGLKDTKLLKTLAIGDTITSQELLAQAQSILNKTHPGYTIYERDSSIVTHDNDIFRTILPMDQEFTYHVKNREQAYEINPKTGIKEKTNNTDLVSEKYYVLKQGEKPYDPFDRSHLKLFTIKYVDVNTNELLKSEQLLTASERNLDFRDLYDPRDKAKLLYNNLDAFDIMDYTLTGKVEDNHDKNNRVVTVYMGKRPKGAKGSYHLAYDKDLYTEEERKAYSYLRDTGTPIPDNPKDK
# method: viability-normalized secreted streptokinase activity reduction – plasminogen activation absorbance, OD405, dose response (AID 1914);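 also: secreted streptokinase activity via plasminogen activation per viability signal from cell pellet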
# Type: functional, Streptococcus pyogenes M1 GAS
Activity calls are given as the source filed them.

{"molecule": "CCCCC(CC)CN1C(=O)/C(=C/c2ccncc2)SC1=S (centres undefined)", "EC50": "> 150 µM (not active)"}
{"molecule": "CC(OC(=O)CC1CCCC1)C(=O)Nc1ccc(S(N)(=O)=O)cc1 (centres undefined)", "EC50": "> 150 µM (not active)"}
{"molecule": "CN(C)c1ccc(C2C=C(c3ccc(Cl)cc3OC(F)F)Nc3ncnn32)cc1 (centres undefined)", "EC50": "> 150 µM (not active)"}
{"molecule": "CC(C)=CCc1c(-c2ccc(O)cc2O)oc2cc3c(c(O)c2c1=O)C=CC(C)(C)O3", "EC50": "> 150 µM (not active)"}
{"molecule": "CCOC(=O)C1=C(O)c2ccccc2C(=O)/C1=C\\c1ccc(CC)cc1", "EC50": "> 150 µM (not active)"}
{"molecule": "N#CC1=C(N)OC2=C(CCc3ccccc32)C1c1ccccc1Cl (centres undefined)", "EC50": "11.9 µM (active)"}
{"molecule": "Nc1ncc(Br)cc1S(=O)(=O)Nc1cc(C(F)(F)F)cc(C(F)(F)F)c1", "EC50": "3.32 µM (active)"}
{"molecule": "CCOC(=O)N1CCN(C(=O)c2ccc3c(c2)N(C)C(=O)/C(=C\\c2ccc(OCC)c(OC)c2)S3)CC1", "EC50": "> 150 µM (not active)"}
{"molecule": "OCCCCC#Cc1c(-c2ccsc2)sc2ccccc12", "EC50": "> 150 µM (not active)"}

* * *

# measured.on: Sentrin-specific protease 8 (Homo sapiens, UniProt Q96LD8)
# Sequence (Q96LD8 whole entry): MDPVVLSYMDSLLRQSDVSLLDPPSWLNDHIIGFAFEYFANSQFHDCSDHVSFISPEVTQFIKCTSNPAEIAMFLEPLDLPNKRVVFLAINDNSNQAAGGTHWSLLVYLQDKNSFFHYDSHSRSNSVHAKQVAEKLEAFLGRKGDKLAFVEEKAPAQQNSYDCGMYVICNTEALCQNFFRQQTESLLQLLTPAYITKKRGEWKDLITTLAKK
# Format: functional
The source made the active and inactive calls.

{"item.smiles": "CC(C)c1ccc(-c2nnn(CCC(=O)O)n2)cc1", "IC50": "7.27 µM (active)"}
{"item.smiles": "CN(C)c1ccc(C(=O)/C=C/c2ccccc2)cc1", "IC50": "14.3 µM (active)"}
{"item.smiles": "Oc1ccccc1-c1csc(-c2ccccc2)n1", "IC50": "10.7 µM (active)"}
{"item.smiles": "Cc1ccc(NC(=O)c2ccc3c(c2)OCO3)cc1Cl", "IC50": "> 100 µM (inactive)"}
{"item.smiles": "Cc1ccccc1C(=O)Oc1ccc2ccc(O)cc2c1", "IC50": "12.1 µM (active)"}
{"item.smiles": "CCOC(=O)c1sc(Nc2ccccc2Cl)nc1C", "IC50": "20.3 µM (active)"}

* * *

# measured.on: Corticotropin-releasing factor receptor 2/Corticotropin-releasing factor-binding protein (Homo sapiens, UniProt P24387+Q13324)
# Sequence (Q13324 whole entry): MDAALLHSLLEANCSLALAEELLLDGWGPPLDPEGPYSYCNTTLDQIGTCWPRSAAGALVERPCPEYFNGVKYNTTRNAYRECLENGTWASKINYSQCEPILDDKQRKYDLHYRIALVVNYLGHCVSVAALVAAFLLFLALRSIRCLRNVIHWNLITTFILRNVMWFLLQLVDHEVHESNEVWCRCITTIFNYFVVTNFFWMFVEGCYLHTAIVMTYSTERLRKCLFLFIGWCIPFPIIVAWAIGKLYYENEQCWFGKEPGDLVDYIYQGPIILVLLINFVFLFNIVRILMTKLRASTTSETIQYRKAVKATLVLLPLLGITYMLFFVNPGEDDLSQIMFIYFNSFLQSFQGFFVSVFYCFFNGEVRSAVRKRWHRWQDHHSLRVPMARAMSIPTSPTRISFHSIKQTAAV
# Sequence (P24387 whole entry): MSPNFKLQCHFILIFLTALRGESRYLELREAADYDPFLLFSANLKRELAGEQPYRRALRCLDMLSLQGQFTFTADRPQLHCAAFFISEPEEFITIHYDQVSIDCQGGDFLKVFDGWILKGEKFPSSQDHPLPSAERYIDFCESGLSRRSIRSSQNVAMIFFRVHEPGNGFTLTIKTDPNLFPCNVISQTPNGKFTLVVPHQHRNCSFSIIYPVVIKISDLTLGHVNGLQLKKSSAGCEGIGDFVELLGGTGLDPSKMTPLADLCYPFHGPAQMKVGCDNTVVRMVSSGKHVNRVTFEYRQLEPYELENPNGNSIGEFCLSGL
# method: activators of CRF receptor 2 with binding protein – uHTS hits, confirmation (AID 602473)
# Type: functional
# conditions.used: read-out: EC50_Mean
The source made the active and inactive calls.
Outcomes: active, inactive

{"compound": "CCOc1ccc(Br)cc1C1=CC(=O)C[C@H](c2ccc(OC)cc2)C1", "category.label": "inactive"}
{"compound": "Cc1cccc(NC(=O)c2cc(S(=O)(=O)c3ccccc3)ccc2Cl)c1", "category.label": "inactive"}
{"compound": "COC(=O)c1ccc2nc3c(cc2c1)[C@@H]1CCN2C(=O)CCC[C@H](C3)[C@H]12", "category.label": "inactive"}
{"compound": "Cc1ccc(/C(O)=C/c2nc3ccccc3oc2=O)cc1", "category.label": "active"}
{"compound": "O=C(Nc1cc(C(F)(F)F)ccc1Cl)c1cccnc1", "category.label": "inactive"}
{"compound": "CC1CCCC(C)N1C(=O)COC(=O)c1cccs1 (stereo not given)", "category.label": "inactive"}
{"compound": "CCOC(=O)c1cccc(NS(=O)(=O)Cc2ccccc2)c1", "category.label": "inactive"}
{"compound": "CCN(CC)c1ccc(/N=C/c2ccc(N(CC)CC)cc2O)cc1", "category.label": "active"}
{"compound": "COCCn1c(-c2ccsc2)nc2c1c(=O)[nH]c(=O)n2CC(C)C", "category.label": "inactive"}
{"compound": "CCCNC(=O)Cn1c(=O)/c(=C/c2ccc(-c3ccc([N+](=O)[O-])cc3)o2)s/c1=C\\C(=O)C(C)(C)C", "category.label": "active"}
